Numbers sourced from patent US12371430B2.

- Test system: phosphorylation of Chk1 (Ser 345) in HT29 colon adenocarcinoma cells
- ASSAY_METHOD_TEXT: pCHK1 cellular assay
- Format: cell-based
- CONDITION_INFO: Homo sapiens, HT-29, hydroxyurea 3 mM, 4 h
VALUE_KIND: IC50

* Cc1ccccc1-c1cc(N2CCOC[C@H]2C)nc2c(-c3ccn[nH]3)nn(C)c12 [Compound 49] | 10 to 100 nM
* CNC(=O)c1cc(N2CCOC[C@H]2C)nc2c(-c3cc[nH]n3)nn(C)c12 [Compound 31] | 100 to 1000 nM
* Cc1cccnc1-c1cc(N2CCOC[C@H]2C)nc2c(-c3cc[nH]n3)n[nH]c12 [Compound 39] | 100 to 1000 nM
* Cc1ccc(-c2cc(N3CCOC[C@H]3C)nc3c(-c4cc[nH]n4)n[nH]c23)cn1 [Compound 2] | 10 to 100 nM
* Cc1cccc(-c2cc(N3CCOC[C@H]3C)nc3c(-c4cc[nH]n4)nn(C)c23)n1 [Compound 33] | 100 to 1000 nM
* C[C@@H]1COCCN1c1cc(C2=CCSCC2)c2c(n1)c(-c1ccn[nH]1)nn2C [Compound 79] | 10 to 100 nM
* C[C@@H]1COCCN1c1cc(-c2ccccn2)c2c(n1)c(-c1cc[nH]n1)nn2C [Compound 58] | 100 to 1000 nM
* C[C@@H]1COCCN1c1cc(C2CCCOC2)c2c(n1)c(-c1ccn[nH]1)nn2C (some centres unmarked) [Compound 67] | 10 to 100 nM
